target: NRAS WT (Homo sapiens, UniProt P01111+P62937); test: Disruption of BRAF RBD interaction with Ras (FRET / MOA assay, with Cyclophilin A); type: biochemical; settings: NRAS WT; read-out: NRAS WT FRET data IC50
Sequence (P01111 whole entry, one chain of several): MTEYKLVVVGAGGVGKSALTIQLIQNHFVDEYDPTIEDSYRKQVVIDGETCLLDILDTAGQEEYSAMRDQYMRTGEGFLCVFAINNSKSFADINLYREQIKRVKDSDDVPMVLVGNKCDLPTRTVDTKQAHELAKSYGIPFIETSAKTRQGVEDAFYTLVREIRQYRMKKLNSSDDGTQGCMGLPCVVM
Recorded IC50 for the following compounds
recorded.endpoint: IC50

• CCn1c(-c2cccnc2[C@H](C)OC)c2c3cc(ccc31)-c1csc(n1)C[C@H](NC(=O)[C@H](C(C)C)N(C)C(=O)N1CC3(CC(O)C3)C1)C(=O)N1CCC[C@H](N1)C(=O)OCC(C)(C)C2 (atropisomer, axis not shown) = 0.1 to 1 µM
• CCn1c(-c2cccnc2[C@H](C)OC)c2c3cc(ccc31)-c1csc(n1)C[C@H](NC(=O)[C@H](C(C)C)N(C)C(=O)N1[C@H](C)CN(C)C[C@H]1C)C(=O)N1CCC[C@H](N1)C(=O)OCC(C)(C)C2 = 0.1 to 1 µM

====

target: KRAS G13D (Homo sapiens, UniProt P01116+P62937, G13D); test: Ras-Raf disruption / FRET / MOA assay (BRAF RBD); format: biochemical; conditions: KRAS G13D FRET data IC50, Ras-Raf disruption, with Cyclophilin A
Sequence (P01116 1-169 isoform P01116-2 G13D limits assumed): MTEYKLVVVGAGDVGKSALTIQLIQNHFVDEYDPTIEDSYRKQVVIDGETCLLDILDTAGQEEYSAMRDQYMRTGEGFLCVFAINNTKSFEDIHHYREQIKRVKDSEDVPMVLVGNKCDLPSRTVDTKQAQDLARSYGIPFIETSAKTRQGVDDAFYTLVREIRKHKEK
Sequence (P62937 whole entry): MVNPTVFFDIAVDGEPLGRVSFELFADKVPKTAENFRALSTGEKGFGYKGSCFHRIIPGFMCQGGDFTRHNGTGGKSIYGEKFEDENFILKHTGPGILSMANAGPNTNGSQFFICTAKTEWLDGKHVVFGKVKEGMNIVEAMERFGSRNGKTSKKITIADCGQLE
pIC50: −log10 of the molar value.
recorded.endpoint: pIC50

• CCn1c(-c2cnccc2COC)c2c3cc(ccc31)-c1cc(O)cc(c1)C[C@H](NC(=O)[C@H](C(C)C)N(C)C(=O)CN(C)C(=O)C1CN1)C(=O)N1CCC[C@H](N1)C(=O)OCC(C)(C)C2 (some centres unmarked) = 5.00 to 6.00
• CCN1C[C@@H]1C(=O)N(C)CC(=O)N(C)[C@H](C(=O)N[C@H]1Cc2cc(O)cc(c2)-c2ccc3c(c2)c(c(-c2cccnc2[C@H](C)OC)n3CC)CC(C)(C)COC(=O)[C@@H]2CCCN(N2)C1=O)C1CCCC1 (some centres unmarked) = 7.00 to 8.00
• CCn1c(-c2cccnc2[C@H](C)OC)c2c3cc(ccc31)-c1cc(O)cc(c1)C[C@H](NC(=O)[C@H](C(C)C)N(C)C(=O)CN(C)C(=O)[C@H]1CN1)C(=O)N1CCC[C@H](N1)C(=O)OCC(C)(C)C2 (single isomer, unassigned) [Example 42B] = 5.00 to 6.00
• CCn1c(-c2cccnc2[C@H](C)OC)c2c3cc(ccc31)-c1csc(n1)C[C@H](NC(=O)[C@H](C1CCCC1)N(C)C(=O)CN(C)C(=O)[C@H]1CN1)C(=O)N1CCC[C@H](N1)C(=O)OCC(C)(C)C2 = 5.00 to 6.00
• CC[C@H]1N[C@H]1C(=O)N(C)CC(=O)N(C)[C@H](C(=O)N[C@H]1Cc2cc(O)cc(c2)-c2ccc3c(c2)c(c(-c2cccnc2[C@H](C)OC)n3CC)CC(C)(C)COC(=O)[C@@H]2CCCN(N2)C1=O)C(C)C = 7.00 to 8.00
• CCn1c(-c2cccnc2[C@H](C)OC)c2c3cc(ccc31)-c1cc(O)cc(c1)C[C@H](NC(=O)[C@H](C(C)C)N(C)C(=O)CN(C)C(=O)[C@@H]1CN1CC1COC1)C(=O)N1CCC[C@H](N1)C(=O)OCC(C)(C)C2 (some centres unmarked) = 6.00 to 7.00
• CCn1c(-c2cccnc2[C@H](C)OC)c2c3cc(ccc31)-c1cc(O)cc(c1)C[C@H](NC(=O)[C@H](C(C)C)N(C)C(=O)CN(C)C(=O)[C@H]1CN1Cc1ccccc1CO)C(=O)N1CCC[C@H](N1)C(=O)OCC(C)(C)C2 (some centres unmarked) = 6.00 to 7.00
• CCn1c(-c2cc(N3CCN(C)CC3)cnc2[C@H](C)OC)c2c3cc(ccc31)-c1cc(O)cc(c1)C[C@H](NC(=O)[C@H](C1CCCC1)N(C)C(=O)CN(C)C(=O)[C@H]1CN1)C(=O)N1CCC[C@H](N1)C(=O)OCC(C)(C)C2 = 7.00 to 8.00

====

target: NRAS G12C (Homo sapiens, UniProt P01111+P62937, G12C); assay: Ras-Raf disruption / FRET / MOA assay (BRAF RBD); assay type: biochemical; details: NRAS G12C; read-out: NRAS G12C FRET data IC50
Sequence (P01111 whole entry G12C, one chain of several): as the sequence (P01111 whole entry, one chain of several) above, with G12C counted along it
pIC50: −log10 of the molar value.
Recorded pIC50 for the following molecules
recorded.endpoint: pIC50

* CCn1c(-c2cccnc2[C@H](C)OC)c2c3cc(ccc31)-c1csc(n1)C[C@H](NC(=O)[C@H](C(C)C)N(C)C(=O)N(C)CC1CN(C(=O)[C@@H]3CN3)C1)C(=O)N1CCC[C@H](N1)C(=O)OCC(C)(C)C2 (atropisomer, axis not shown) | 7.00 to 8.00
* CCn1c(-c2cccnc2[C@H](C)OC)c2c3cc(ccc31)-c1cc(O)cc(c1)C[C@H](NC(=O)[C@H](C(C)C)N(C)C(=O)[C@@H]1CCN(C(=O)[C@@H]3CN3)[C@@H]1C)C(=O)N1CCC[C@H](N1)C(=O)OCC(C)(C)C2 (atropisomer, axis not shown) | 7.00 to 8.00
* CCn1c(-c2cnccc2COC)c2c3cc(ccc31)-c1cccc(c1)C[C@H](NC(=O)[C@H](C(C)C)N(C)C(=O)CCN=C=NC1(COC)CC1)C(=O)N1CCC[C@H](N1)C(=O)OCC(C)(C)C2 | 6.00 to 7.00
* CCn1c(-c2cccnc2[C@H](C)OC)c2c3cc(ccc31)-c1csc(n1)C[C@H](NC(=O)[C@H](C(C)C)N(C)C(=O)N1CCCN(C(=O)[C@H]3CN3)CC1)C(=O)N1CCC[C@H](N1)C(=O)OCC(C)(C)C2 (atropisomer, axis not shown) | 7.00 to 8.00

====

molecular target: KRAS G12V (Homo sapiens, UniProt P01116+P62937, G12V); experiment: Disruption of BRAF RBD interaction with Ras (FRET / MOA assay, with Cyclophilin A); format: biochemical; conditions: KRAS G12V; read-out: KRAS G12V FRET data IC50
Sequence (P01116 1-169 isoform P01116-2 G12V limits assumed, one chain of several): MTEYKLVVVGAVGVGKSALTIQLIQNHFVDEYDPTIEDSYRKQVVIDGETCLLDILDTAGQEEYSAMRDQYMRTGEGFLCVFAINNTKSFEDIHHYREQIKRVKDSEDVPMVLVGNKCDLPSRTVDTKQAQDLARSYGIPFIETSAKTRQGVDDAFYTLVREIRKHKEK
pIC50: −log10 of the molar value.
Recorded pIC50 for the following compounds
recorded.endpoint: pIC50

* CCn1c(-c2cccnc2COC)c2c3cc(ccc31)-c1cc(O)cc(c1)C[C@H](NC(=O)[C@H](C(C)C)N(C)C(=O)[C@H]1CCN(C(=O)C#CC(C)(C)N(C)C)C1)C(=O)N1CCC[C@H](N1)C(=O)OCC(C)(C)C2 | 6.00 to 7.00
* C=CC(=O)N1CCOC2(CCN(C(=O)N(C)[C@H](C(=O)N[C@H]3Cc4cccc(c4)-c4ccc5c(c4)c(c(-c4cccnc4[C@H](C)OC)n5CC(F)(F)F)CC(C)(C)COC(=O)C4CCCN(N4)C3=O)C(C)C)CC2)C1 (some centres unmarked) | 6.00 to 7.00
* CCn1c(-c2cccnc2[C@H](C)OC)c2c3cc(ccc31)-c1cc(O)cc(c1)C[C@H](NC(=O)[C@@H](NC(C)=O)C(C)(C)OC)C(=O)N1CCC[C@H](N1)C(=O)OCC(C)(C)C2 (racemic) | < 5.00
* CCn1c(-c2cccnc2[C@H](C)OC)c2c3cc(ccc31)-c1csc(n1)C[C@H](NC(=O)[C@@H](OC(=O)N1CC(OC)C1)C(C)C)C(=O)N1CCC[C@H](N1)C(=O)OCC(C)(C)C2 | 6.00 to 7.00
* C=CC(=O)N1CC2(CCN2C(=O)N(C)[C@H](C(=O)N[C@H]2Cc3nc(n(C)n3)-c3ccc4c(c3)c(c(-c3cccnc3[C@H](C)OC)n4CC)CC(C)(C)COC(=O)C3CCCN(N3)C2=O)C(C)C)C1 (some centres unmarked) | 6.00 to 7.00
* C=CC(=O)N1CC[C@H](C(=O)N(C)[C@H](C(=O)N[C@H]2C[C@H]3CN(CCCO3)c3ccc4c(c3)c(c(-c3cccnc3[C@H](C)OC)n4CC)CC(C)(C)COC(=O)[C@@H]3CCCN(N3)C2=O)C(C)C)C1 (racemic) | < 5.00
* C=CC(=O)N1CC[C@H](C(=O)N(C)[C@H](C(=O)N[C@H]2Cc3cc(O)cc(c3)-c3ccc4c(c3)c(c(-c3ccc(CN5CC[C@@H](O)C5)cc3)n4CC)CC(C)(C)COC(=O)[C@@H]3CCCN(N3)C2=O)C(C)C)C1 | 5.00 to 6.00
* CCn1c(-c2cccnc2[C@H](C)OC)c2c3cc(ccc31)-c1csc(n1)C[C@H](NC(=O)[C@H](C1CCCC1)N(C)C(=O)N1CCN(C)CC1)C(=O)N1CCC[C@H](N1)C(=O)OCC(C)(C)C2 | 6.00 to 7.00
* CCn1c(-c2cccnc2[C@H](C)OC)c2c3cc(ccc31)-c1csc(n1)C[C@H](NC(=O)[C@H](C(C)C)N(C)C(=O)N1CC3(CC(N(C)C)C3)C1)C(=O)N1CCC[C@H](N1)C(=O)OCC(C)(C)C2 (atropisomer, axis not shown) | 6.00 to 7.00
* CCn1c(-c2cccnc2[C@H](C)OC)c2c3cc(ccc31)-c1csc(n1)C[C@H](NC(=O)[C@H](C(C)C)N(C)C(=O)N1CC(NC)C1)C(=O)N1CCC[C@H](N1)C(=O)OCC(C)(C)C2 (atropisomer, axis not shown) | 6.00 to 7.00
* CCn1c(-c2cnccc2COC)c2c3cc(ccc31)-c1cc(O)cc(c1)C[C@H](NC(=O)C1CCCC1C(F)F)C(=O)N1CCC[C@H](N1)C(=O)OCC(C)(C)C2 (some centres unmarked) | 5.00 to 6.00
* C=CC(=O)N1CC[C@H](C(=O)N(C)[C@H](C(=O)N[C@H]2Cc3cc(O)cc(c3)-c3ccc4c(c3)c(c(-c3cc(CN(C)C)cnc3COC)n4CC)CC(C)(C)COC(=O)[C@@H]3CCCN(N3)C2=O)C(C)C)C1 | 6.00 to 7.00
* C=CC(=O)N1CC[C@H](C(=O)N(C)[C@H](C(=O)N[C@H]2Cc3cc(O)cc(c3)-c3ccc4c(c3)c(c(-c3ccc(CN(C)C)cc3COC)n4CC)CC(C)(C)COC(=O)[C@@H]3CCCN(N3)C2=O)C(C)C)C1 | 6.00 to 7.00
* C=CC(=O)N1CC[C@H](C(=O)N(C)[C@H](C(=O)N[C@H]2Cc3cc(O)cc(c3)-c3ccc4c(c3)c(c(-c3cc(C)cnc3[C@H](C)OC)n4CC)CC(C)(C)COC(=O)[C@@H]3CCCN(N3)C2=O)C(C)C)C1 | 5.00 to 6.00
* CCn1c(-c2cccnc2[C@H](C)OC)c2c3cc(ccc31)-c1cc(O)cc(c1)C[C@H](NC(=O)[C@H](C(C)C)N(C)C(=O)[C@H]1CCN(C(=O)[C@@H]3CCCN3C)C1)C(=O)N1CCC[C@H](N1)C(=O)OCC(C)(C)C2 | 7.00 to 8.00
* CCn1c(-c2cc(N3CCN(C)CC3)cnc2[C@H](C)OC)c2c3cc(ccc31)-c1csc(n1)C[C@H](NC(=O)[C@H](C(C)C)N(C)C(=O)N1CCOCC1)C(=O)N1CCC[C@H](N1)C(=O)OCC(C)(C)C2 (atropisomer, axis not shown) | 7.00 to 8.00
* CCn1c(-c2cccnc2[C@H](C)OC)c2c3cc(ccc31)-c1csc(n1)C[C@H](NC(=O)[C@H](C(C)C)N(C)C(=O)N1CC([C@H](C)OC)C1)C(=O)N1CCC[C@H](N1)C(=O)OCC(C)(C)C2 (atropisomer, axis not shown) | 7.00 to 8.00

Every entry's value here was drawn from patent US20230233569A1.
